# test_protocol: Change in fragrance compound concentration during the indole inhibition test (GC-MS at start and after 24 hours)
# Type: physicochemical
# test_parameters: in fresh human urine, room temperature, category 0-30%
reported_metric: Decrease in Fragrance Compounds after 24 hours (%) 0-30%

# input Requested field: Decrease in Fragrance Compounds after 24 hours (%) 0-30%. Item: O=Cc1ccccc1
# output Y (Y= Yes)

# input Requested field: Decrease in Fragrance Compounds after 24 hours (%) 0-30%. Item: C=C(C)C1CC=C(C=O)CC1 (stereo not shown)
# output Y (Y= Yes)

# input Requested field: Decrease in Fragrance Compounds after 24 hours (%) 0-30%. Item: CC(C)=CCCC(C)=CC=O
# output Y (Y= Yes)

# input Requested field: Decrease in Fragrance Compounds after 24 hours (%) 0-30%. Item: O=C/C=C/c1ccccc1
# output Y (Y= Yes)
